src = patent US20110217237A1

target-desc: T1, mouse DLL4 extracellular domain (mouse, UniProt Q9JI71 27-532)
T1 construct: extracellular domain; also called muDLL4 ECD; murine DLL4
T1 sequence (Q9JI71 27-532): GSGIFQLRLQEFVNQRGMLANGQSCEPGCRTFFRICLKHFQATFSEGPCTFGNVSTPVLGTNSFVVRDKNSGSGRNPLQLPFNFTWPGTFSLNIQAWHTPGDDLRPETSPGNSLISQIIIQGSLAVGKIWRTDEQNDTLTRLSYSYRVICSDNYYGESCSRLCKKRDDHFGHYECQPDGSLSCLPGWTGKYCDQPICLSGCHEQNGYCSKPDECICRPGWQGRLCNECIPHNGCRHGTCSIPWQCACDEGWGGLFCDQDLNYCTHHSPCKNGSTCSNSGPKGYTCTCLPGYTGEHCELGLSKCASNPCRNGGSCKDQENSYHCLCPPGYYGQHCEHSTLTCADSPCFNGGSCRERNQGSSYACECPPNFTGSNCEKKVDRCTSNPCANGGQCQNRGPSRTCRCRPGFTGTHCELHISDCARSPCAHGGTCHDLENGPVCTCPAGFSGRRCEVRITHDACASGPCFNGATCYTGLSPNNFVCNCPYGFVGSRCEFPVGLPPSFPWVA
protocol-notes: SPR (Biacore)
Procedure: The BIACORE® surface plasmon resonance assay (Biacore, Inc., Piscataway, N.J., US) determines the affinity of antibodies with kinetic measurements of on-rate and off-rate constants. […] The equilibrium dissociation constant KD (M) of the reaction between antibodies and the target antigen was then calculated from the kinetic rate constants by the following formula: KD=Koff/Kₒₙ. Binding was recorded as a function of time and kinetic rate constants were calculated.
value-type: Kd (µM)
One number for each entry, in µM.

See these solved cases before continuing.
binder	recorded-result
14A11 rat anti-DLL4 monoclonal antibody (antibody, rat IgG2a, V domains shown, rat IgG2a/K hybridoma mAb; also called MC13-14A11.3A4) VH: EVQLQQSGPELAKPGSSVKISCKASGYTFTNSYISWIKQTTGQGLEYVGYINTGSGGADYNEKFKGKATLTVDKSSRTAFMQLSSLTPGDSAVYYCAKSILLGSTCYFDYWGQGVLVTVSS VL: NTVLTQSPALAVSLGQRVTISCKASRSVSSPMYSYIYWYQQKPGQQPKLLIYRASTLASGVPARFSGSGSGTDFTLNIDPVEADDIATYFCQQSWSDPFTFGSGTKLEIKR	0.0013
h1A11.6 (antibody, V domains shown, humanized IgG; also called VH.1a/VL.1a 1A11) VH: EVQLVESGGGLVQPGGSLRLSCAASGFTFSNFPMAWVRQAPGKGLEWVATISSSDGTTYYRDSVKGRFTISRDNAKSSLYLQMNSLRAEDTAVYYCSRGYYNSPFAYWGQGTLVTVSS VL: DIQMTQSPSSLSASVGDRVTITCRASEDIYSNLAWYQQKPGKSPKLLIFDTNNLADGVPSRFSGSGSGTDSTLTISSLQPEDFATYFCQQYNNYPPTFGQGTKLEIKR	0.031
h1A11.11 (antibody, V domains shown, humanized IgG; also called VH.1b/VL.1b 1A11) VH: EVQLVESGGGLVQPGGSLRLSCAASGFTFSNFPMAWVRQAPGKGLEWVATISSSDGTTYYRDSVKGRFTISRDNAKNSLYLQMNSLRAEDTAVYYCSRGYYNSPFAYWGQGTLVTVSS VL: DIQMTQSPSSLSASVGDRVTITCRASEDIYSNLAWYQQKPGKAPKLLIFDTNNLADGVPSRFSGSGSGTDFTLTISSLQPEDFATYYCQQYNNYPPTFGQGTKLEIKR	0.027
h1A11.2 (antibody, V domains shown, humanized IgG; also called VH.1/VL.1a 1A11) VH: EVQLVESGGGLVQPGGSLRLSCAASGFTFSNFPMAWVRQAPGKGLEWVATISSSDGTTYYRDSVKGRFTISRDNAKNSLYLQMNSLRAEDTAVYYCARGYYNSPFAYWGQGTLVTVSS VL: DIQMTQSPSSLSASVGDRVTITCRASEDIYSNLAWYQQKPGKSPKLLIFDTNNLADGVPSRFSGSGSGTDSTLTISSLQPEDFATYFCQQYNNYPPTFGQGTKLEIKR	0.019
h1A11.1 (antibody, V domains shown, humanized IgG; also called hu1A11.1; VH.1/VL.1 1A11) VH: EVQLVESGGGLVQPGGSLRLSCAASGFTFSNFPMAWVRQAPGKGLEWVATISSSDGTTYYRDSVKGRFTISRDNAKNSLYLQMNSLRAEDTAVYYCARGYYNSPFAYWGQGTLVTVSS VL: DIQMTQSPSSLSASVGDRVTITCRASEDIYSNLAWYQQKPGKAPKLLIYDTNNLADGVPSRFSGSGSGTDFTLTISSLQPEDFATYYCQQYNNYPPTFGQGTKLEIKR	0.038
h1A11.9 (antibody, V domains shown, humanized IgG; also called VH.1b/VL.1 1A11) VH: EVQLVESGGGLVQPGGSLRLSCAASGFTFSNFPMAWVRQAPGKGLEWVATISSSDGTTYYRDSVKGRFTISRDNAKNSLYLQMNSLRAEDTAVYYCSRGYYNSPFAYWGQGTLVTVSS VL: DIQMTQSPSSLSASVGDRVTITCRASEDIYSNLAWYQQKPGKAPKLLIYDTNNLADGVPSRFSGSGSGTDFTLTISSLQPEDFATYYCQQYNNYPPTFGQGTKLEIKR	0.034
1A11 rat anti-DLL4 monoclonal antibody (antibody, rat IgG1, V domains shown, rat IgG1/K hybridoma mAb; also called MC13-1A11.2E1; 1A11 (rat mAb)) VH: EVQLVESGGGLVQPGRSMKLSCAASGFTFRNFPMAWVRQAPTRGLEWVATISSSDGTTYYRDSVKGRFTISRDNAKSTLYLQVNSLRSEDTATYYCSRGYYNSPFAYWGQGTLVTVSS VL: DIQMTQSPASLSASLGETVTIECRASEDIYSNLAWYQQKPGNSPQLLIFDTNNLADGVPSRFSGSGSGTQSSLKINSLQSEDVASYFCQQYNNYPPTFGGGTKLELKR	0.023
1A11 chimeric antibody (antibody, human IgG1, V domains shown, also called Chimera of 1A11; 1A11 (chimera)) VH: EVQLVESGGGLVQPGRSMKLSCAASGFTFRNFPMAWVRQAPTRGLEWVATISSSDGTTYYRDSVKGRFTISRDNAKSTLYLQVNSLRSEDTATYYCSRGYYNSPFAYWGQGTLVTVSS VL: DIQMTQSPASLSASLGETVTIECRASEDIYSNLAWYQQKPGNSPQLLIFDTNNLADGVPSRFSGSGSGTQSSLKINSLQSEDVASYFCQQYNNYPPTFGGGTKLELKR	0.024

Respectfully, I request Kd for each entry included below.
1. h1A11.5 (antibody, V domains shown, humanized IgG; also called VH.1a/VL.1 1A11) VH: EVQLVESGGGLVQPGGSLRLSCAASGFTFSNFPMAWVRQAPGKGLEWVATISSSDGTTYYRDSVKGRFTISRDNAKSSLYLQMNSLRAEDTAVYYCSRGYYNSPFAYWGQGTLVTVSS VL: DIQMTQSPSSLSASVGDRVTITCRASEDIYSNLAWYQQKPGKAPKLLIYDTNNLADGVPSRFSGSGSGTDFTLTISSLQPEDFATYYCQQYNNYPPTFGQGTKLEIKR
2. h1A11.4 (antibody, V domains shown, humanized IgG; also called VH.1/VL.2a 1A11) VH: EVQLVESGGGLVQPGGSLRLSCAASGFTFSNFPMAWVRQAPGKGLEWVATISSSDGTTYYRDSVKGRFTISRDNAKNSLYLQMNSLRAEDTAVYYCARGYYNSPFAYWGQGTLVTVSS VL: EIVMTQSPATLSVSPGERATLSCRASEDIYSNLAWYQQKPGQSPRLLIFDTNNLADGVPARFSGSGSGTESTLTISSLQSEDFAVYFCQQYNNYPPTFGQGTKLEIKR

[0.022, 0.039]
